Origin of measurements: ChEMBL document CHEMBL4385643

Test: in vivo
Settings: CD-1, mouse, iv, 1 mg/kg
Description: Volume of distribution at steady state in CD-1 mouse at 1.0 mg/kg, iv measured upto 6 hours by LC-MS/MS analysis
property label: Vd at 6 h (L/kg)
Use L/kg as the unit, but write only the number.

Given item CCN1CC2(C1)CN(c1ccc(Nc3ncc(F)c(-c4cnn5c4[C@H](C)CCCC5)n3)nc1)C2 , the value recorded as its Vd at 6 h is 6.2

====

Assay: in vivo
Conditions: CD-1, mouse, po, 25 mg/kg
Description: Half life in CD-1 mouse at 25 mg/kg, po measured upto 6 hours by LC-MS/MS analysis
property label: half-life at 6 h (h)
Number only, in h; omit the unit.

Quick note, half-life at 6 h for CCN1CC2(C1)CN(c1ccc(Nc3ncc(F)c(-c4cnn5c4[C@H](C)CCCC5)n3)nc1)C2 landed at 2.5

====

Target: CDK1/Cyclin A (Homo sapiens, UniProt P06493)
Sequence (P06493 whole entry): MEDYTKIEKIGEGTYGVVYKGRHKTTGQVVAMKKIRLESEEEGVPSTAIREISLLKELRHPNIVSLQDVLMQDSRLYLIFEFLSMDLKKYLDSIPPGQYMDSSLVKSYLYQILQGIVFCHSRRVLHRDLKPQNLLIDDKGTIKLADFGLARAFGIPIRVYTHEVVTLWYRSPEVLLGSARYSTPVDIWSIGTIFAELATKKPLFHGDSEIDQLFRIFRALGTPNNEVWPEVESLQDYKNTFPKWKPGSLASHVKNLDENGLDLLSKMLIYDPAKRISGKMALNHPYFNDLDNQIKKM
Sequence (P20248 whole entry, further chain): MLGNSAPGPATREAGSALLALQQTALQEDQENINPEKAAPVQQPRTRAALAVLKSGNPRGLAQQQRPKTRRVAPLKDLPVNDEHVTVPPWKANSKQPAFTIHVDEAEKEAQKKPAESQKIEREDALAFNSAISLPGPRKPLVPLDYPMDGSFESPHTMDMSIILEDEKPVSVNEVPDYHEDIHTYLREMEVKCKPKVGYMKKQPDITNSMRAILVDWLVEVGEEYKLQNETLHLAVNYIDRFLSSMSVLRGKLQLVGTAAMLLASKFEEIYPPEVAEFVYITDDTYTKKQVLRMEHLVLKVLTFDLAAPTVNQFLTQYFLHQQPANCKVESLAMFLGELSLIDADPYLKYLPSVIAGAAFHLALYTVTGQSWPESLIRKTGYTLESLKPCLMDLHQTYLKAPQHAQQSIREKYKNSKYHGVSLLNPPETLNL
Reported pKi is given for each of the following compounds.
Scale for pKi: -log10 of concentration given in mol/L; no unit attached.

C[C@@H]1CCCCn2ncc(-c3nc(Nc4ccc(N5CC6(C5)CN(C5COC5)C6)cn4)ncc3F)c21 : 7.11
C[C@@H]1CCCCn2ncc(-c3nc(Nc4ccc(N5CCC(N(C)C)CC5)cn4)ncc3F)c21 : 6.68
CCN1CCN(Cc2ccc(Nc3ncc(F)c(-c4cnn5c4[C@H](C)CCCC5)n3)nc2)CC1 : 6.20
C[C@@H]1CCCCn2ncc(-c3nc(Nc4ccc(C5CCN(C)CC5)cn4)ncc3F)c21 : 6.55
C[C@@H]1CCCn2ncc(-c3nc(Nc4ccc(N5CCN(C)CC5)cn4)ncc3F)c21 : 6.11
C[C@@H]1CCCCn2ncc(-c3nc(Nc4ccc(N5CC6(CN(CCCF)C6)C5)cn4)ncc3F)c21 : 6.96
COCCN1CCC(Nc2nccc(-c3cn[nH]c3C(C)C)n2)CC1 : 6.57
C[C@@H]1CCCCn2ncc(-c3nc(Nc4ccc(N5CC6(CN(CCF)C6)C5)cn4)ncc3F)c21 : 7.28
CCN1CC2(C1)CN(c1ccc(Nc3ncc(F)c(-c4cnn5c4[C@H](C)CCCC5)n3)nc1)C2 : 6.96
C[C@H]1CCCn2ncc(-c3nc(Nc4ccc(N5CCN(C)CC5)cn4)ncc3F)c21 : 6.01

# next compound below
Form field pKi for item CN1CCN(c2ccc(Nc3nccc(-c4cnn5c4CCCC5)n3)nc2)CC1 on CDK1/Cyclin A (Homo sapiens, UniProt P06493): 4.54

====

Tested on: human MDR1
Experiment: in vitro
Settings: dog, MDCK-MDR1
Description: Efflux ratio in gMDCKI cells expressing human MDR1
property label: efflux ratio
// no unit, no text: just the number

get_value(item= C[C@@H]1CCCCn2ncc(-c3nc(Nc4ccc(N5CC6(CN(CCF)C6)C5)cn4)ncc3F)c21 , readout=efflux ratio) returns 2

====

Measurement record for CDK4/Cyclin D3 (Homo sapiens); quantity recorded: pKi.
Please keep in mind that pKi is minus log10 of the molar concentration; only the number is needed.

Study these solved cases before continuing.
COCCN1CCC(Nc2nccc(-c3cnn4c3CCCC4)n2)CC1 : 6.68
CC(C)c1n[nH]cc1-c1ccnc(NC2CCCCC2)n1 : 7.74
C[C@@H]1CCCCn2ncc(-c3nc(Nc4ccc(N5CC6(C5)CN(C5COC5)C6)cn4)ncc3F)c21 : 9.40

Would you kindly look at the next entry?
// pKi value for CN1CCN(c2ccc(Nc3ncc(F)c(-c4cnn5c4CCCCC5)n3)nc2)CC1 : 8.74

====

Assay: Plasma to brain permeability coefficient, Kp of the compound in CD-1 mouse at 1.0 mg/kg, iv measured at 6 hrs post dose by LC/MS/MS analysis
Assay type: ADME, organism-based
property label: Kp at 6 h

Record CCN1CC2(C1)CN(c1ccc(Nc3ncc(F)c(-c4cnn5c4[C@H](C)CCCC5)n3)nc1)C2 . Reported Kp at 6 h: 2.3

====

Measured Ki, listed per entry.
Biological target: Cyclin-dependent kinase 2/cyclin E1 (Homo sapiens, UniProt P24941)
Assay: Inhibition of human full length GST-tagged CDK2 (1 to 298(end) amino acids)/Cyclin E1 (1 to 410(end) amino acids) expressed in baculovirus expression system assessed as inhibition constant using Ulight-4E-BP1 as substrate preincubated for 30 mins followed by substrate addition and incubated for 90 mins by TR-FRET assay
Please state the figure in µM; there is no need to write the unit.

Observe how each entry below is paired with its result.
COCCN1CCC(Nc2nccc(-c3cnn4c3CCCC4)n2)CC1 : 7.5
CC(C)c1n[nH]cc1-c1ccnc(NC2CCCCC2)n1 : 0.022
COCCN1CCC(Nc2nccc(-c3cn[nH]c3C(C)C)n2)CC1 : 0.32

Query molecule follows.
Measured Ki, CN1CCN(c2ccc(Nc3nccc(-c4cnn5c4CCCC5)n3)nc2)CC1 : 15

====

Assay: Unbound brain to plasma ratio in Sprague-Dawley rat at 30 mg/kg, po after 48 hrs by LC-MS/MS analysis
Format: ADME, organism-based
Conditions: read-out: K(p,uu,brain)
property label: Kp uu at 48 h
// keep it numeric: no unit symbol after the value

Briefly, Kp uu at 48 h measured for CCN1CCN(Cc2ccc(Nc3ncc(F)c(-c4cc(F)c5nc(C)n(C(C)C)c5c4)n3)nc2)CC1 : 0.11

====

Test: in vivo
Settings: CD-1, mouse, plasma, po, 25 mg/kg
Description: Protein binding in CD-1 mouse plasma assessed as fraction unbound at 25 mg/kg, po measured up to 6 hours by LC-MS/MS analysis
property label: fraction unbound at 6 h
# output: bare number, no unit

Lookup result for CCN1CC2(C1)CN(c1ccc(Nc3ncc(F)c(-c4cnn5c4[C@H](C)CCCC5)n3)nc1)C2 ; measured fraction unbound at 6 h: 0.073

====

Test: Lipophilicity, log D of the compound by microscale shake flask method
Type: physicochemical
Settings: octanol/water
property label: logD
Simply state the number, no unit and no words.

For record C[C@@H]1CCCCn2ncc(-c3nc(Nc4ccc(N5CC6(CN(CCF)C6)C5)cn4)ncc3F)c21 the listed logD is 2.8

According to the records, this molecule CCN1CC2(C1)CN(c1ccc(Nc3ncc(F)c(-c4cnn5c4[C@H](C)CCCC5)n3)nc1)C2 displays logD of 2.1

====

Assay: in vivo
Conditions: CD-1, mouse, brain/plasma, iv, 1 mg/kg
Description: Plasma to brain permeability coefficient, Kp of the compound in CD-1 mouse at 1.0 mg/kg, iv measured at 1 hr post dose by LC/MS/MS analysis
property label: Kp at 1 h
Please give only the number in your answer, with no unit.

Measured Kp at 1 h of CCN1CC2(C1)CN(c1ccc(Nc3ncc(F)c(-c4cnn5c4[C@H](C)CCCC5)n3)nc1)C2 : 4.8

====

Molecular target: CDK4/Cyclin D3 (Homo sapiens, UniProt P11802)
Sequence (P11802 whole entry): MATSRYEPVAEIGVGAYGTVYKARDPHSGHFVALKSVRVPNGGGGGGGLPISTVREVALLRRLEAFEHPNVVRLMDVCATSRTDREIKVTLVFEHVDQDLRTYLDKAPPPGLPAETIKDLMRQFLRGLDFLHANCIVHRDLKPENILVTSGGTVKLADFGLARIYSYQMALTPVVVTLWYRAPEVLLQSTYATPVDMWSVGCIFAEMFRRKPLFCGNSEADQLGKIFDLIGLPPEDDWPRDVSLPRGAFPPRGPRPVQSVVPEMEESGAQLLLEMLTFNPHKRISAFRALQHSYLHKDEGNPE
Sequence (P30281 whole entry, further chain): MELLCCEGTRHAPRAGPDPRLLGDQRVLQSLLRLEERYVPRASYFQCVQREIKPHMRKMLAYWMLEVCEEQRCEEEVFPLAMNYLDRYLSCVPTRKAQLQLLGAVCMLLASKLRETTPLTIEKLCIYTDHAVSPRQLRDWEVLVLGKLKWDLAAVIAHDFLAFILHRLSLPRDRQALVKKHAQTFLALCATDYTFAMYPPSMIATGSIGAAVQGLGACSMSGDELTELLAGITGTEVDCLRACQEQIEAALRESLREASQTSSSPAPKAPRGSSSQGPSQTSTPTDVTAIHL
property label: pKi
// pKi: -log10(molar conc.)

The cases that follow already have their pKi on record.
CCN1CCN(Cc2ccc(Nc3ncc(F)c(-c4cnn5c4[C@H](C)CCCC5)n3)nc2)CC1 : 8.89
CN1CCN(c2ccc(Nc3nccc(-c4cnn5c4CCCC5)n3)nc2)CC1 : 7.21
C[C@H]1CCCn2ncc(-c3nc(Nc4ccc(N5CCN(C)CC5)cn4)ncc3F)c21 : 8.42

Value of pKi reported for the compound C[C@@H]1CCCCn2ncc(-c3nc(Nc4ccc(N5CCC(N(C)C)CC5)cn4)ncc3F)c21 is 9.00

Recorded pKi (compound C[C@@H]1CCCn2ncc(-c3nc(Nc4ccc(N5CCN(C)CC5)cn4)ncc3F)c21 ): 8.85

# compound CC(C)c1c(-c2nc(Nc3ccc(N4CCN(C)CC4)cn3)ncc2F)cnn1C ; its pKi = 8.57

Record C[C@@H]1CCCCn2ncc(-c3nc(Nc4ccc(N5CCOCC5)cn4)ncc3F)c21 . Reported pKi: 9.40

Noted for C[C@@H]1CCCCn2ncc(-c3nc(Nc4ccc(C5CCN(C)CC5)cn4)ncc3F)c21 : its pKi reads 9.10

Input COCCN1CCC(Nc2nccc(-c3cn[nH]c3C(C)C)n2)CC1 . Output pKi: 7.70

Given item CN1CCN(c2ccc(Nc3ncc(F)c(-c4cnn5c4CCCC5)n3)nc2)CC1 , the value recorded as its pKi is 8.44

====

Biological target: CDK1/Cyclin A (Homo sapiens)
Reported Ki values for the following compounds.
Your answer should be a plain number; it is taken to be in nM.

Solved entries (count: 2):
CC(C)c1c(-c2nc(Nc3ccc(N4CCN(C)CC4)cn3)ncc2F)cnn1C : 530
C[C@@H]1CCCCn2ncc(-c3nc(Nc4ccc(N5CC6(CN(C)C6)C5)cn4)ncc3F)c21 : 63

The compound listed as CN1CCN(c2ccc(Nc3ncc(F)c(-c4cnn5c4CCCCC5)n3)nc2)CC1 shows Ki equal to 1300

Quick note, Ki for CC(C)c1n[nH]cc1-c1ccnc(NC2CCCCC2)n1 landed at 24

Lab note: C[C@@H]1CCCCn2ncc(-c3nc(Nc4ccc(N5CCOCC5)cn4)ncc3F)c21 gave Ki of 70

response.value for CN1CCN(c2ccc(Nc3ncc(F)c(-c4cnn5c4CCCC5)n3)nc2)CC1 (field: Ki) = 2000

Ki recorded for this compound, COCCN1CCC(Nc2nccc(-c3cnn4c3CCCC4)n2)CC1 , is 5200

====

Some compounds, each annotated with its measured pKi.
Molecular target: CDK4/Cyclin D3 (Homo sapiens)
pKi: −log10 of the molar value.

Consider the worked cases shown below.
C[C@@H]1CCCCn2ncc(-c3nc(Nc4ccc(N5CC6(CN(C)C6)C5)cn4)ncc3F)c21 : > 9.52
C[C@@H]1CCCCn2ncc(-c3nc(Nc4ccc(N5CC6(CN(CCF)C6)C5)cn4)ncc3F)c21 : > 9.52

Below: the item to evaluate.
So for CCN1CC2(C1)CN(c1ccc(Nc3ncc(F)c(-c4cnn5c4[C@H](C)CCCC5)n3)nc1)C2 , the logged pKi turned out to be > 9.52
